IC50: recorded values
target: purified HLA DRB1 *0404 (Homo sapiens, UniProt P01903+P01911, A100R/A169T/F76Y/I96L/K127E/L162R/M171V/N62H/P40V/Q125Y/R42H/S133A/S149N/S66Y/V209L/W38E); test: IC50nM to purified HLA | DRB1 *0404
Where no end group is shown, it is not given here.
Supply the numeric figure in nM, leaving out any unit text.

Take a look at these entries with their results.
{"sequence-input": "AAAYFVAANTLHAAA [SEQ ID NO: 24]", "recorded-result": 5.2}
{"sequence-input": "AAAHFVAAWTLKAAA [SEQ ID NO: 25]", "recorded-result": 4.8}
{"sequence-input": "AAAFFVAAWTLHAAA [SEQ ID NO: 12]", "recorded-result": 2.9}

Q. Any idea what its IC50 is? The sequence is AAAWFVAAWTLHAAA [SEQ ID NO: 7]
A. 2

Q. What value of measured IC50 is listed for AAAFFVAAFTLHAAA [SEQ ID NO: 14] ?
A. 1.1

Q. Item under review: AAAFFVAAFTLKADA [SEQ ID NO: 18] . Reported IC50?
A. 6.1
